Kindly state EC50 for each of the entries shown.
target: wild type human I Ks channel (Kv7.1/KCNE1) (Homo sapiens, UniProt P51787); assay: Two-electrode voltage clamp of I Ks channel; assay type: cell-based; settings: read-out: K m of ΔV 0.5; Hill fit of dose response, pH 9.0, mean ± SEM
Sequence (P51787 whole entry): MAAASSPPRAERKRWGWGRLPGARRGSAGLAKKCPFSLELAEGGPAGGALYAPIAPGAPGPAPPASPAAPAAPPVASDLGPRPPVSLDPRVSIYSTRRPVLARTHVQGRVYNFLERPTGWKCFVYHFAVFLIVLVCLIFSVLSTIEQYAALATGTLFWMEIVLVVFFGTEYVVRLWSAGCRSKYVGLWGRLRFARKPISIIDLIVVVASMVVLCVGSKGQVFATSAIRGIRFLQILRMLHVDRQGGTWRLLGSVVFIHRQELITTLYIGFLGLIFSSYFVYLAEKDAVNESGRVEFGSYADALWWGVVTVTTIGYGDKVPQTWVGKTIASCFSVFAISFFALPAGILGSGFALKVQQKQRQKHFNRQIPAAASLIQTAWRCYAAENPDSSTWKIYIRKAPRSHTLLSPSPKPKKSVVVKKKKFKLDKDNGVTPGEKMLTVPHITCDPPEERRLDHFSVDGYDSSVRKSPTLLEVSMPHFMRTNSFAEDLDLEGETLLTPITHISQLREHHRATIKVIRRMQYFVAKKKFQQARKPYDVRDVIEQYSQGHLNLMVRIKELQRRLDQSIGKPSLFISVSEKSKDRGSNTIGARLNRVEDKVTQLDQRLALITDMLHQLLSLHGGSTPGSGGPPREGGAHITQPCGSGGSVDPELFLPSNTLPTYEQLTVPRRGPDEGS
Enter your answer as a number in µM; do not include the unit.

Input: Request body: readout EC50, system wild type human I Ks channel (Kv7.1/KCNE1) (Homo sapiens, UniProt P51787), query `CCC=CCC=CCC=CCC=CCC=CCCCCCC(=O)O` . Return the value.
Output: 11.1

Input: Request body: readout EC50, system wild type human I Ks channel (Kv7.1/KCNE1) (Homo sapiens, UniProt P51787), query `CCC=CCC=CCC=CCCCCCC(=O)O` . Return the value.
Output: 7.2
